The measurements presented in this section are drawn from patent US12559506B2.

target: wildtype LRRK2 (Homo sapiens); construct: expressed in transfected cells; host or cells: HEK293 (ATCC CRL-1573), transient transfection, mammalian expression vector with ubiquitin promoter; test: LRRK2 degradation assay, HiBit-tagged wildtype LRRK2 expressed from plasmid in HEK293 cells (Nano-Glo Dual-Luciferase); assay type: cell-based; conditions: HiBit-tagged wildtype LRRK2 in HEK293 cells, 24 hours; read-out: **WT Dmax (%)
Sequence (Q5S007 whole entry): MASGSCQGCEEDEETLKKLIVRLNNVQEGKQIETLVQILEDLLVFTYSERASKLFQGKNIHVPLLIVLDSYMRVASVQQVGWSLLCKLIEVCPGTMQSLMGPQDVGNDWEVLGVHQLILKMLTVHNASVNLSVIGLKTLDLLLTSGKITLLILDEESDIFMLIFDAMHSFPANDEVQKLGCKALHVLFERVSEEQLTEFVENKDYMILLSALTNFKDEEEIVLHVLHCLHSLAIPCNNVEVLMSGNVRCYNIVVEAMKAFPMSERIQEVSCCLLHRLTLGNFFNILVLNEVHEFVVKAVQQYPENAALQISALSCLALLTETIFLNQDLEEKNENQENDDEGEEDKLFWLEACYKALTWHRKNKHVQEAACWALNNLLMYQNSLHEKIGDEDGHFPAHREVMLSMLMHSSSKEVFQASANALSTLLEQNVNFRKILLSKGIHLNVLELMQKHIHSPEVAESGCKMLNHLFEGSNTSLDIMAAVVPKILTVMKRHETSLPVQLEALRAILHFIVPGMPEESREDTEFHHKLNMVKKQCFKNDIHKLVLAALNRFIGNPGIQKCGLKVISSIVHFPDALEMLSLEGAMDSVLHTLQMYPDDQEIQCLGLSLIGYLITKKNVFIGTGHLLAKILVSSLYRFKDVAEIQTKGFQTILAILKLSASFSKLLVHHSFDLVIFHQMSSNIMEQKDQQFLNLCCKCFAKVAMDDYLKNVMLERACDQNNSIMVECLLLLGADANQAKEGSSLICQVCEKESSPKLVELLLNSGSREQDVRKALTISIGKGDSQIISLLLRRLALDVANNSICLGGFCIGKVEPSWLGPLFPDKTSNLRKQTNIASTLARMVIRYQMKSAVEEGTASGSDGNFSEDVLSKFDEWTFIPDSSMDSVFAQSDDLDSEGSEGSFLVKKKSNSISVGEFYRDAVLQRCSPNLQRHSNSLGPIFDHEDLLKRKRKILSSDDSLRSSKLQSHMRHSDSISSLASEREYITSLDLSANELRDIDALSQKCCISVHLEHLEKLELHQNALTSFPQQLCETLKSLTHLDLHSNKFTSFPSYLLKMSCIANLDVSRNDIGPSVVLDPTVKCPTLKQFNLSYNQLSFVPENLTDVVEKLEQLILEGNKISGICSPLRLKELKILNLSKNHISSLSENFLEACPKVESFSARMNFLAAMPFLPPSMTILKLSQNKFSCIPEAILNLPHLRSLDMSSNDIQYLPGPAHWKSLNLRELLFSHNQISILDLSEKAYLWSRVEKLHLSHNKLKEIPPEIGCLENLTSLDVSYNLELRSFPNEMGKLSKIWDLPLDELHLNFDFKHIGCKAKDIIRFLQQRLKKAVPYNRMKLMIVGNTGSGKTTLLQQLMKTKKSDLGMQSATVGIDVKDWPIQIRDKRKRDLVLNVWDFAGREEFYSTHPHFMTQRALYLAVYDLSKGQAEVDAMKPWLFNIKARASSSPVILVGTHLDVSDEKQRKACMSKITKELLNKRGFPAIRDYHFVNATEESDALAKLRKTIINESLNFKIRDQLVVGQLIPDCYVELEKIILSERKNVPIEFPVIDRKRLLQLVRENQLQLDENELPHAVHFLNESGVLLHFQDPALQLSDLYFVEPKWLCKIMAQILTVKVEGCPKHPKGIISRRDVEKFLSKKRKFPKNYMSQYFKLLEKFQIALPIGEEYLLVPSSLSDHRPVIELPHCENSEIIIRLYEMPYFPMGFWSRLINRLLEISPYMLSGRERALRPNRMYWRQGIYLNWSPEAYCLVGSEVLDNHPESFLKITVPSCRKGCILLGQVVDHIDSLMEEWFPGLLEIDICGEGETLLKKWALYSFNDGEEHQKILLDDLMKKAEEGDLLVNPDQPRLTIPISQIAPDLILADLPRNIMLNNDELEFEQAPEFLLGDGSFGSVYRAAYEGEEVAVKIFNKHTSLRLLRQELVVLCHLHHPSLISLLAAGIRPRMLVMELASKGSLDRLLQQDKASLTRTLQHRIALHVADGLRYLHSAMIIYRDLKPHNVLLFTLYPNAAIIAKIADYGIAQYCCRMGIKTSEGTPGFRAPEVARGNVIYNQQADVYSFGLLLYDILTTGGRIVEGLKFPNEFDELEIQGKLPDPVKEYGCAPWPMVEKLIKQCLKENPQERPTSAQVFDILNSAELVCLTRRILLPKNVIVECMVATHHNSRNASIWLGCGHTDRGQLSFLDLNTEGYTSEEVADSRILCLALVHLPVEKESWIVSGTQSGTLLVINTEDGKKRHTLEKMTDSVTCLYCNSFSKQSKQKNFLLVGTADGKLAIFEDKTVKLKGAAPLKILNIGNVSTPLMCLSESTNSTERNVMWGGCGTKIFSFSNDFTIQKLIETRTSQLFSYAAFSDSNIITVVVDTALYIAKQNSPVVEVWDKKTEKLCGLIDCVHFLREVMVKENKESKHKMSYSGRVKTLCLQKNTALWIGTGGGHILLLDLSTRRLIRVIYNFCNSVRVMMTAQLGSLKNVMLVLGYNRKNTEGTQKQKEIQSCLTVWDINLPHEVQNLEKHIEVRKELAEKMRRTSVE
# maps each entry to its Dmax
measurement.name: Dmax

[
  {
    "molecule": "CC1(Oc2ccc3n[nH]c(-c4cc(N5CCN(CC6(F)CCN(CC7CN(c8ccc9c(c8)C(=O)N(C8CCC(=O)NC8=O)C9=O)C7)CC6)CC5)ncn4)c3c2)CC1 (stereo not drawn) [Compound 135]",
    "system.tested": "wildtype LRRK2 (Homo sapiens)",
    "measurement.name": "Dmax",
    "measured.result": "< 50%"
  },
  {
    "molecule": "CC1(Oc2ccc3[nH]nc(-c4cc(N5CCN(C[C@H]6CCN(CC7CCN(c8ccc9c(c8)C(=O)N(C8CCC(=O)NC8=O)C9=O)CC7)C(=O)C6)CC5)ncn4)c3c2)CC1 (single isomer, unassigned) [Compound 104]",
    "system.tested": "wildtype LRRK2 (Homo sapiens)",
    "measurement.name": "Dmax",
    "measured.result": "50 to 70%"
  },
  {
    "molecule": "C[C@H]1CN(c2cc(-c3[nH]nc4ccc(OC5(C)CC5)cc34)ncn2)CCN1CC1CCN(CC2CCN(c3cccc4c3CN(C3CCC(=O)NC3=O)C4=O)CC2)CC1 (stereo partly drawn) [Compound 145]",
    "system.tested": "wildtype LRRK2 (Homo sapiens)",
    "measurement.name": "Dmax",
    "measured.result": "< 50%"
  }
]
